biological target: UniProtKB P08581; test: Inhibition of his-tagged wild type c-MET (1050 to 1346 residues) (unknown origin) by ADP-glo assay
pIC50: −log10 of the molar value.
Here, each record is paired with measured pIC50 data.

# chemical_smiles, pIC50
rows = [
    ("Cc1ccc(-c2ccc3c(C)n[nH]c3c2)c2c1[C@@H](N(C)C(=O)c1ncccc1C(F)F)CCC2", 5.31),
    ("Cc1ccc(-c2ccc3c(C)n[nH]c3c2)c2c1[C@H](N(C)C(=O)c1ncccc1C(F)F)CCC2", 6.05),
]

----------
target: Hepatocyte growth factor receptor (Homo sapiens, UniProt P08581, D1228V); assay: Inhibition of his-tagged c-MET D1228V mutant (1050 to 1346 residues) (unknown origin) in human NCI-H1993 cells by HTRF analysis; format: cell-based; settings: read-out: IC50

# chemical_smiles, assay_system, IC50, µM
measured = [
    ("Cc1ccc(-c2ccc3c(C)n[nH]c3c2)c2c1[C@H](N(C)C(=O)c1ncccc1C(F)F)CCC2", "Hepatocyte growth factor receptor (Homo sapiens, UniProt P08581, D1228V)", 12),
]

----------
biological target: Hepatocyte growth factor receptor (Homo sapiens, UniProt P08581); experiment: Inhibition of his-tagged wild type c-MET (1050 to 1346 residues) (unknown origin) in human NCI-H1993 cells by HTRF analysis; format: cell-based; conditions: read-out: IC50
Sequence (P08581 whole entry, the tested form may be a part): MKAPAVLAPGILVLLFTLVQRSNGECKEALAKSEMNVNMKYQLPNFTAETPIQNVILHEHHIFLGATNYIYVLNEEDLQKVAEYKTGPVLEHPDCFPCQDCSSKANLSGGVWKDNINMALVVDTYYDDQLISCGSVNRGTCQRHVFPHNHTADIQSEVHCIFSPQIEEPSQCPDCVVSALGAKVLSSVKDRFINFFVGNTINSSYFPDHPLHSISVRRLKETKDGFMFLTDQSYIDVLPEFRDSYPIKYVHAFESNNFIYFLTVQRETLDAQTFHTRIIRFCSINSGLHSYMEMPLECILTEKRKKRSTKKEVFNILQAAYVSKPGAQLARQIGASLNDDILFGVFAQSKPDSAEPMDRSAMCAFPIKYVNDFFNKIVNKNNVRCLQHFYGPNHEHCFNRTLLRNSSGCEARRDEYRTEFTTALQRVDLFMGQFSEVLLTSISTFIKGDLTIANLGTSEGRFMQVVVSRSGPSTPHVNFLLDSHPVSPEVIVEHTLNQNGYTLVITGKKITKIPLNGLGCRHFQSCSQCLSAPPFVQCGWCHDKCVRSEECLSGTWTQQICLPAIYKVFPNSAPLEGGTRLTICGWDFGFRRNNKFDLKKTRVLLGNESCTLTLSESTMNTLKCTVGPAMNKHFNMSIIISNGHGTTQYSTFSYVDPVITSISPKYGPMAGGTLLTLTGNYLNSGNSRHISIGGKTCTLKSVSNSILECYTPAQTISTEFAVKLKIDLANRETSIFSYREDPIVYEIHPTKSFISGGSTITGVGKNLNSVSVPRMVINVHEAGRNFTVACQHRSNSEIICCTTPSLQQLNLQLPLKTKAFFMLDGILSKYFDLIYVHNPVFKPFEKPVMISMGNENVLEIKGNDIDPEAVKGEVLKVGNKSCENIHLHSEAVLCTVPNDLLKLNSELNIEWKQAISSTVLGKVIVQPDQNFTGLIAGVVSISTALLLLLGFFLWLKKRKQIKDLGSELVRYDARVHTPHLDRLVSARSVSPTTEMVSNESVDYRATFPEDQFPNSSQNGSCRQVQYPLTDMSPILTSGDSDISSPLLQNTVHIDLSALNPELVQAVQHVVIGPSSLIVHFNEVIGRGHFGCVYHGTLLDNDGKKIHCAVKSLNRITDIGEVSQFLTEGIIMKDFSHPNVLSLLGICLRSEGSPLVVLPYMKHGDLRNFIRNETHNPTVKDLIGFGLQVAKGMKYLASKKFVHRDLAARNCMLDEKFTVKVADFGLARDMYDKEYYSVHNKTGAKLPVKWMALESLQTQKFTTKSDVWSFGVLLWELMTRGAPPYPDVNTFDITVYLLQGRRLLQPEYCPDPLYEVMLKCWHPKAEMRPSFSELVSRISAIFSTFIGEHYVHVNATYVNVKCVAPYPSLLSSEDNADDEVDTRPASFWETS

# chemical_smiles, IC50
records = [
    ("Cc1ccc(-c2ccc3c(C)n[nH]c3c2)c2c1[C@H](N(C)C(=O)c1ncccc1C(F)F)CCC2", "> 30 µM"),
]

----------
Quick list: IC50 per entry.
biological target: Hepatocyte growth factor receptor (Homo sapiens, UniProt P08581, D1228V); experiment: Inhibition of his-tagged c-MET D1228V mutant (1050 to 1346 residues) (unknown origin) by ADP-glo assay

# chemical_smiles, IC50
measured = [
    ("Cc1ccc(-c2ccc3c(C)n[nH]c3c2)c2c1[C@@H](N(C)C(=O)c1ncccc1C(F)F)CCC2", "11 µM"),
    ("Cc1ccc(-c2ccc3c(C)n[nH]c3c2)c2c1[C@H](N(C)C(=O)c1ncccc1C(F)F)CCC2", "0.09 µM"),
]

----------
pKd: −log10 of the molar value.
Quick note: these are pKd numbers for system: Hepatocyte growth factor receptor (Homo sapiens)

# chemical_smiles, pKd
records = [
    ("Cc1ccc(-c2ccc3c(C)n[nH]c3c2)c2c1[C@@H](N(C)C(=O)c1ncccc1C(F)F)CCC2", 5.55),
    ("Cc1ccc(-c2ccc3c(C)n[nH]c3c2)c2c1[C@H](N(C)C(=O)c1ncccc1C(F)F)CCC2", 5.14),
]
